All figures here come from patent US20170073337A1.

Measured IC50 by item
# System: Recombinant human BACE1 (Homo sapiens)
# Construct: purchased R&D Systems
# Sequence (P56817 46-501): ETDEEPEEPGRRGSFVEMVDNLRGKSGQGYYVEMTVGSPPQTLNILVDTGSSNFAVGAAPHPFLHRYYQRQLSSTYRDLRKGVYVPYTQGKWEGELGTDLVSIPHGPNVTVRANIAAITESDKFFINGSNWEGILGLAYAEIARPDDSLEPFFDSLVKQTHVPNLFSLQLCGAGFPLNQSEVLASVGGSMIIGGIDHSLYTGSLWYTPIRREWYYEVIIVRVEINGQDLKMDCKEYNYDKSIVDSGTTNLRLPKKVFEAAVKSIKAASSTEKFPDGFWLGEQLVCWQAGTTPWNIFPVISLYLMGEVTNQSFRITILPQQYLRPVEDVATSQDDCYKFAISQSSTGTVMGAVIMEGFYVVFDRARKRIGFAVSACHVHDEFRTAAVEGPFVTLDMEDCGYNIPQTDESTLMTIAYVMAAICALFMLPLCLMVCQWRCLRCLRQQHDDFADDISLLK
# Test Protocol: Assay of BACE1 inhibitory activity: 96-well
# Format: biochemical
# Experimental Context: Assay format 96-well
Please respond with the number in nM and leave the unit unwritten.

Worked cases, IC50 given:
- Smiles Data: "CO[C@H]1[C@@H](CF)OC(N)=N[C@]1(C)c1cc(NC(=O)c2ccc(C#N)cn2)ccc1Cl"
  Unit Label: "nM"
  IC50: 18
- Smiles Data: "C[C@]1(c2cc(NC(=O)c3cnc(OCF)cn3)ccc2F)N=C(N)O[C@H](CF)[C@@H]1OCC(F)(F)F"
  Unit Label: "nM"
  IC50: 56.8
- Smiles Data: "C[C@]1(c2cc(NC(=O)c3ccc(F)cn3)ccc2F)N=C(N)OCC12CC(F)(F)C2"
  Unit Label: "nM"
  IC50: 134
- Smiles Data: "CO[C@H]1[C@@H](CF)OC(N)=N[C@]1(C)c1cc(NC(=O)c2cnc(OCF)cn2)ccc1Cl"
  Unit Label: "nM"
  IC50: 46.5
- Smiles Data: "C[C@H]1SC(N)=N[C@](C)(c2nc(NC(=O)c3ccc(F)cn3)ccc2F)[C@H]1F"
  Unit Label: "nM"
  IC50: 67.9
- Smiles Data: "C[C@]1(c2cc(NC(=O)c3ccc(C#N)cn3)ccc2F)N=C(N)O[C@H]2[C@@H]1OCC2(F)F"
  Unit Label: "nM"
  IC50: 13.1
- Smiles Data: "C[C@]1(c2nc(NC(=O)c3ccc(Cl)cn3)ccc2F)N=C(N)S[C@H](CF)[C@@H]1F"
  Unit Label: "nM"
  IC50: 15
- Smiles Data: "C[C@]1(c2cc(NC(=O)c3cnc(OCF)cn3)ccc2F)N=C(N)OCC12CC(F)(F)C2"
  Unit Label: "nM"
  IC50: 69.6

Looking up C[C@]1(c2cc(NC(=O)c3ccc(F)cn3)ccc2F)N=C(N)O[C@H](CF)[C@@H]1OCC(F)(F)F , I see its IC50 listed as 102

Looking up C[C@H]1[C@@H](C(F)F)OC(N)=N[C@]1(C)c1cc(NC(=O)c2cnc(OCF)cn2)ccc1F , I see its IC50 listed as 49.2

Looking up CO[C@H]1[C@@H](CF)OC(N)=N[C@]1(C)c1cc(NC(=O)c2cnc(OCF)cn2)ccc1F , I see its IC50 listed as 97

Looking up C[C@]1(c2nc(NC(=O)c3cnc(OCF)cn3)ccc2F)N=C(N)S[C@H](CF)[C@@H]1F , I see its IC50 listed as 29.9

Looking up C[C@H]1[C@@H](C(F)(F)F)OC(N)=N[C@]1(C)c1cc(NC(=O)c2ccc(C#N)cn2)ccc1F , I see its IC50 listed as 22.6

---

# Test Protocol: Metabolic stability test
# Type: in vitro ADME
# Experimental Context: human liver microsomes, 37° C., 30 minutes, NADPH
Measured remaining % by item
Please respond with the number in % and leave the unit unwritten.

Worked cases, remaining % given:
- Smiles Data: "C[C@H]1SC(N)=N[C@](C)(c2cccc(NC(=O)c3ccc(F)cn3)c2)[C@H]1F"
  Endpoint Result: 78.9
- Smiles Data: "C[C@]1(c2cc(NC(=O)c3cnc(OCF)cn3)ccc2F)N=C(N)O[C@H](C(F)(F)C2CC2)[C@@H]1F"
  Endpoint Result: 96.5
- Smiles Data: "C[C@H]1SC(N)=N[C@](C)(c2cc(NC(=O)c3cnc(C(F)F)cn3)ccc2F)[C@H]1F"
  Endpoint Result: 96.5

Note: attention shifts to another entry.
Looking up CC(F)(F)[C@H]1OC(N)=N[C@](C)(c2cc(NC(=O)c3cnc(OCC(F)F)cn3)ccc2F)[C@H]1F , I see its remaining % listed as 93.1

---

Test system UniProt:P11712, IC50 listed for each of the compounds.
Sequence (P11712 whole entry): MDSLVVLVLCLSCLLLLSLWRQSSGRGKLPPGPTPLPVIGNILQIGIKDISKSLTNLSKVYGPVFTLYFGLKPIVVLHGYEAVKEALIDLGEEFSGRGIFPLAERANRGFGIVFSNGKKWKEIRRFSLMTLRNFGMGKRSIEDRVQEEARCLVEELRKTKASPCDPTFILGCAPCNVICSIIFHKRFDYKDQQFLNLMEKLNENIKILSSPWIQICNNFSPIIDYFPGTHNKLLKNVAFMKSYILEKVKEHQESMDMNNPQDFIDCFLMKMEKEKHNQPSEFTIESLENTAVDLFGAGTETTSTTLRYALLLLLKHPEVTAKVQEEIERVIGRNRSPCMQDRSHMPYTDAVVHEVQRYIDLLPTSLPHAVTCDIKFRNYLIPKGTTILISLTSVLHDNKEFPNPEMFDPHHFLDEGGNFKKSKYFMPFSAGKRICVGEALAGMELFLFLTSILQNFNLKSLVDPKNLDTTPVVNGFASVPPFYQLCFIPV

// returns IC50 for CO[C@H]1[C@@H](CF)OC(N)=N[C@]1(C)c1cc(NC(=O)c2cnc(OCF)cn2)ccc1Cl [Compound I-19] with UniProt:P11712; value = ≥ 20 µM

// returns IC50 for C[C@H]1SC(N)=N[C@](C)(c2nc(NC(=O)c3cnc(OCF)cn3)ccc2F)[C@H]1F [Compound I-3] with UniProt:P11712; value = ≥ 10 µM

---

Measured Kp at 2 h by item
# System: P-gp (Mus musculus, UniProt P21447)
# Construct: from tissue; host or cells: living mice (brain/plasma distribution), wild type versus mdr1a (−/−)
# Sequence (P21447 whole entry): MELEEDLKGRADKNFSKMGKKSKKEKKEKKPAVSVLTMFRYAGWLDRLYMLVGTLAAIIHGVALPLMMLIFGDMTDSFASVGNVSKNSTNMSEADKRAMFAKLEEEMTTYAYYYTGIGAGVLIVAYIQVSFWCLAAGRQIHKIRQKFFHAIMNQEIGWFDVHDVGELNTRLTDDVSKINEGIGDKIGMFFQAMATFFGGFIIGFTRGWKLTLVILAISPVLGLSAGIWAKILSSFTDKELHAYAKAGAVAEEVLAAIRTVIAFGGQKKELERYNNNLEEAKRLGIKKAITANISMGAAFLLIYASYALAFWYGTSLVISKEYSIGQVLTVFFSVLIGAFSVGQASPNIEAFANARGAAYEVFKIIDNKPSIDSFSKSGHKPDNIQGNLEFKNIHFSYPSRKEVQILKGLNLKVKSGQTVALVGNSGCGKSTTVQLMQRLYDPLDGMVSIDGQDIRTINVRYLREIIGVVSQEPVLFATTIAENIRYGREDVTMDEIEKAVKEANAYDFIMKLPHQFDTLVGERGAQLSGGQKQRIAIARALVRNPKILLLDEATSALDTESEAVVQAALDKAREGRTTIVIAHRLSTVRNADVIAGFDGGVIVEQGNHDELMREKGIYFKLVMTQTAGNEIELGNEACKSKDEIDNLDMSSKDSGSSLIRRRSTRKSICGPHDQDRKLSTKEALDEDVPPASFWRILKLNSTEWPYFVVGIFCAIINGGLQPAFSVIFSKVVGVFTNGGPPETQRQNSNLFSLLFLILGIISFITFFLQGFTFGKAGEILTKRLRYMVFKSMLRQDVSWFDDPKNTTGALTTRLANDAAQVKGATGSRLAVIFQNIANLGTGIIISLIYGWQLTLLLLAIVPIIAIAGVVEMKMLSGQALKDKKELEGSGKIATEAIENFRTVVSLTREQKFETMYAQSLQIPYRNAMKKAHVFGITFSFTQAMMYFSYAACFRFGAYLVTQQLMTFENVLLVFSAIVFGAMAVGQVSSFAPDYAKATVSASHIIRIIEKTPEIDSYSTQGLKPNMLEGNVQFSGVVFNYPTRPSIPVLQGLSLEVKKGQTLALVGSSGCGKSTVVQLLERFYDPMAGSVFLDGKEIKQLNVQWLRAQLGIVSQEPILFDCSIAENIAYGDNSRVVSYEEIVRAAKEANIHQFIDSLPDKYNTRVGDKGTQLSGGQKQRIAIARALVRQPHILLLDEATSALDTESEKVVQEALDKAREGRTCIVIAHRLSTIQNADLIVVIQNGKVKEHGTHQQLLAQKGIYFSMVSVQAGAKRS
# Test Protocol: P-gp substrate test using mdr1a (−/−) B6 mice
# Assay type: in vivo
# Experimental Context: mdr1a (−/−) B6 (KO) and C57BL/6J (wild), mouse, brain / plasma, po, 2 mg/kg, Kp in KO mouse (mdr1a (−/−) B6) / Kp in Wild mouse, read-out: Kp ratio (2 mg/kg, po, 2 hr)
Give only the figure.

Worked cases, Kp at 2 h given:
- Smiles Data: "C[C@H]1SC(N)=N[C@](C)(c2nc(NC(=O)c3ccc(F)cn3)ccc2F)[C@H]1F"
  Kp at 2 h: 0.959
- Smiles Data: "C[C@]1(c2cc(NC(=O)c3ccc(C#N)cn3)ccc2F)N=C(N)O[C@H]2[C@@H]1OCC2(F)F"
  Kp at 2 h: 5.15
- Smiles Data: "C[C@H]1SC(N)=N[C@](C)(c2cc(NC(=O)c3cnc(OCC(F)(F)F)cn3)ccc2F)[C@H]1F"
  Kp at 2 h: 6.13

Note: attention shifts to another entry.
Looking up C[C@H]1SC(N)=N[C@](C)(c2nc(NC(=O)c3ccc(C#N)cn3)ccc2F)[C@H]1F , I see its Kp at 2 h listed as 4.12

---

# System: human ether-a-go-go related gene (hERG) channel (Homo sapiens)
# Construct: expressed in transfected cells; host or cells: CHO cells
# Sequence (Q12809 whole entry): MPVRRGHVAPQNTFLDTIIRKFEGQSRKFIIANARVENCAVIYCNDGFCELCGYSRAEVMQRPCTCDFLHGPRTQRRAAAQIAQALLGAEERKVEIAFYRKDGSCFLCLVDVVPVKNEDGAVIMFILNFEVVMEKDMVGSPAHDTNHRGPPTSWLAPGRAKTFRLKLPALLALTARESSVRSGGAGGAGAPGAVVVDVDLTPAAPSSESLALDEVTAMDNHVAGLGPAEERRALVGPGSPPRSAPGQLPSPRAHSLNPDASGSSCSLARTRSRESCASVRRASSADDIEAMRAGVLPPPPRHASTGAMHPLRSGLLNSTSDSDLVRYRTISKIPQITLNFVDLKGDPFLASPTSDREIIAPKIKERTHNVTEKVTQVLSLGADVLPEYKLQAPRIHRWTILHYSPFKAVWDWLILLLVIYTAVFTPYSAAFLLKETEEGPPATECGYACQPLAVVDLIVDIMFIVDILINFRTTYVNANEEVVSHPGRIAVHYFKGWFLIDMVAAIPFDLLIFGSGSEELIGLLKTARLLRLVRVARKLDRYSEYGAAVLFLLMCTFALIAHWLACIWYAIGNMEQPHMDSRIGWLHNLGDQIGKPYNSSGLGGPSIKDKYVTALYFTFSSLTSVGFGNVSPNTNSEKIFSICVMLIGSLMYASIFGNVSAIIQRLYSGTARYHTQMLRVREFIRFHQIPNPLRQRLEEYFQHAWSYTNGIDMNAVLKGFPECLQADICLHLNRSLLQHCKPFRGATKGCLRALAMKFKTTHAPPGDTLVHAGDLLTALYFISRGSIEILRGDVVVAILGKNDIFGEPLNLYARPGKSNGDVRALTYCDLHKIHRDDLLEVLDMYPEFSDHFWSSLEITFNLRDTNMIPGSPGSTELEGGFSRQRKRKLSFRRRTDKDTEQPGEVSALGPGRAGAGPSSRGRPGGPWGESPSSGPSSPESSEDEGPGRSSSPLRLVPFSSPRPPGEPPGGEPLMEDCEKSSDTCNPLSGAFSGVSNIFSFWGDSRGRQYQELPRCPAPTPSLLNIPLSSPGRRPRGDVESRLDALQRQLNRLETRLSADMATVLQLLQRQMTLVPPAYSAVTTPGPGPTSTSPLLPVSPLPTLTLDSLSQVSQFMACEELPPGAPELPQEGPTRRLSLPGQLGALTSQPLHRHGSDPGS
# Test Protocol: hERG test
# Type: cell-based
# Experimental Context: % inhibition of IKr tail peak current at 3 uM; CHO cells expressing hERG
Where hERG_3 uM_% equals or exceeds 40%, the correct label is condition met; where it does not, the label is condition not met.

- Molecule: "COc1cnc(C(=O)Nc2ccc(F)c([C@@]3(C)N=C(N)O[C@H](C(C)(F)F)[C@@H]3F)c2)cn1 [Compound I-42]"
  Class Name: "condition not met"

Let us examine a further case.
Incoming: Answer whether hERG_3 uM_% of COC[C@H]1SC(N)=N[C@](C)(c2cc(NC(=O)c3cnc(OCF)cn3)ccc2F)[C@H]1F [Compound I-91] is greater than or equal to 40%.
Outgoing: condition not met

---

Test system CYP1A2 (Homo sapiens, UniProt P05177), pIC50 listed for each of the compounds.
pIC50: −log10 of the molar value.

Worked cases, pIC50 given:
- Compound: "C[C@]1(c2cc(NC(=O)c3ccc(OCF)cn3)ccc2F)N=C(N)O[C@H](C2(F)CC2)[C@@H]1F [Compound I-101]"
  System: "CYP1A2 (Homo sapiens, UniProt P05177)"
  pIC50: "≤ 4.70"
- Compound: "COc1ccc(C(=O)Nc2ccc(F)c([C@@]3(C)N=C(N)SCC34CC(F)(F)C4)c2)nc1 [Compound I-57]"
  System: "CYP1A2 (Homo sapiens, UniProt P05177)"
  pIC50: "≤ 4.70"
- Compound: "[2H]C([2H])([2H])Oc1cnc(C(=O)Nc2ccc(F)c([C@@]3(C)N=C(N)S[C@H](C)[C@@H]3F)c2)cn1 [Compound I-111]"
  System: "CYP1A2 (Homo sapiens, UniProt P05177)"
  pIC50: "≤ 4.70"
- Compound: "C[C@@H](F)[C@H]1OC(N)=N[C@](C)(c2cc(NC(=O)c3ccc(C#N)cn3)ccc2F)[C@H]1F [Compound I-15]"
  System: "CYP1A2 (Homo sapiens, UniProt P05177)"
  pIC50: "≤ 4.70"
- Compound: "CC(F)(F)[C@H]1OC(N)=N[C@](C)(c2cc(NC(=O)c3ccc(C#N)cn3)ccc2F)[C@H]1F [Compound I-40]"
  System: "CYP1A2 (Homo sapiens, UniProt P05177)"
  pIC50: "≤ 4.70"
- Compound: "C[C@]1(c2cc(NC(=O)c3ccc(C#N)cn3)ccc2F)N=C(N)OCC12CC(F)(F)C2 [Compound I-43]"
  System: "CYP1A2 (Homo sapiens, UniProt P05177)"
  pIC50: "≤ 4.70"

// returns pIC50 for CC(F)(F)[C@H]1OC(N)=N[C@](C)(c2cc(NC(=O)c3cnc(OCC(F)(F)F)cn3)ccc2F)[C@H]1F [Compound I-75] with CYP1A2 (Homo sapiens, UniProt P05177); value = ≤ 4.70

---

Measured solubility kinetic at 16 h by item
# Test Protocol: Solubility test
# Assay type: physicochemical
# Experimental Context: JP 1st fluid, 25 °C, pH 1.2, simulated gastric fluid, kinetic from dmso stock; read-out: JP1

- Smiles Data: "C[C@H]1[C@H](C(F)(F)F)OC(N)=N[C@]1(C)c1cc(NC(=O)c2ccc(C#N)cn2)ccc1F"
  solubility kinetic at 16 h: "35 µM"

Looking up CO[C@H]1[C@@H](CF)OC(N)=N[C@]1(C)c1cc(NC(=O)c2ccc(Cl)cn2)ccc1F , I see its solubility kinetic at 16 h listed as 46.7 µM

Looking up C[C@]1(c2nc(NC(=O)c3cnc(OCF)cn3)ccc2F)N=C(N)S[C@H](CF)[C@@H]1F , I see its solubility kinetic at 16 h listed as 34.3 µM

Looking up CO[C@H]1[C@@H](CF)OC(N)=N[C@]1(C)c1cc(NC(=O)c2cnc(OCF)cn2)ccc1Cl , I see its solubility kinetic at 16 h listed as 37.1 µM
